Target: human Dopamine Receptor D4.4 (DRD4.4), DRD4 (gene 1815)
Assay: NVS_GPCR_hDRD4.4: NovaScreen (NVS) G Protein-Coupled Receptor Assay for human Dopamine Receptor D4.4 (DRD4.4) (AID 2283264)
Records with an inconclusive call do not appear. Active and inactive are the calls of the source. How the source made its calls: active means hit-call score of the fitted dose curve at least 0.9, where 1 is the maximum; inconclusive means response in the unintended direction; inactive means score below 0.9.
measurementLabel: AC50

- CCOC(=O)[C@]1(c2ccccc2)Oc2ccccc2[C@@H]1N: 0.0481 µM (active)
- [Cl-].[Cl-].[Hg+2]: 1.76 µM (active)
- Cc1cc(N=Nc2ccccc2C)ccc1N: 25 µM (active)
- CCC[CH2][Sn]([Cl])([CH2]CCC)[CH2]CCC: 1.83 µM (active)
